Procedure Text: in vitro
Condition Parameters: human, CC50, uninfected A549 cells, CellTiter-Glo
The molecules listed here are annotated with their CC50.

[
  {
    "Molecule": "Cc1cccc2c1OC/C=C\\CN1CN([C@H]2c2ccccc2)n2ccc(=O)c(O)c2C1=O (single isomer, unassigned) [Compound 110A]",
    "CC50": "> 200 nM"
  },
  {
    "Molecule": "O=C1c2c(O)c(=O)ccn2N2CN1CC/C=C\\COc1cccc3c1[C@@H]2c1ccccc1CC3 (single isomer, unassigned) [Compound 28B]",
    "CC50": "> 400 nM"
  },
  {
    "Molecule": "O=C1c2c(O)c(=O)ccn2N2CN1C[C@@H]1C[C@H]1COc1c(ccc(F)c1F)[C@H]2c1ccccc1 (single isomer, unassigned) [Compound 139BB]",
    "CC50": "> 50 nM"
  },
  {
    "Molecule": "O=C1c2c(O)c(=O)ccn2N2CN1C/C=C\\COc1ccccc1[C@H]2c1ccccc1",
    "CC50": "> 2000 nM"
  },
  {
    "Molecule": "O=C1c2c(O)c(=O)ccn2N2CN1C/C=C\\COc1c(ccc(F)c1F)[C@@H]2c1ccccc1 (single isomer, unassigned) [Compound 74B]",
    "CC50": "> 200 nM"
  },
  {
    "Molecule": "O=C1c2c(O)c(=O)ccn2N2CN1CC[C@@H]1C[C@H]1COc1cccc3c1[C@@H]2c1ccccc1SC3 (single isomer, unassigned) [Compound 131AA]",
    "CC50": "> 200 nM"
  }
]
